Test: Drug recovery in feces of po dosed dog
Format: ADME, organism-based, Canis lupus familiaris
Details: faeces, read-out: Drug recovery
Assay endpoint: dose excreted (%)
Reply numerically in %, unit not repeated.

Q: Please look up its dose excreted: COC(=O)N[C@H](C(=O)N[C@@H](Cc1ccccc1)[C@@H](O)CN(Cc1ccc(-c2ccccn2)cc1)NC(=O)[C@@H](NC(=O)OC)C(C)(C)C)C(C)(C)C
Result: 79

====

Conditions: rat, in vivo, po, 3 mg/kg
Binary label based on Cmax with cut-off 70 nM: below gives t, not below gives f.

Q: Does the reported Cmax of COC(=O)N[C@H](C(=O)N[C@@H](Cc1ccccc1)[C@H](CN(Cc1ccc(-c2ccccn2)cc1)NC(=O)[C@@H](NC(=O)OC)C(C)(C)C)OC(=O)CN(C)C)C(C)(C)C stay below 70 nM?
Result: t

Q: Does the reported Cmax of COC(=O)N[C@H](C(=O)N[C@@H](Cc1ccccc1)[C@H](CN(Cc1ccc(-c2ccccn2)cc1)NC(=O)[C@@H](NC(=O)OC)C(C)(C)C)OCOP(=O)([O-])[O-])C(C)(C)C.[Na+].[Na+] stay below 70 nM?
Result: f

Q: Does the reported Cmax of COC(=O)N[C@H](C(=O)N[C@@H](Cc1ccccc1)[C@H](CN(Cc1ccc(-c2ccccn2)cc1)NC(=O)[C@@H](NC(=O)OC)C(C)(C)C)OC(=O)[C@@H](N)Cc1c[nH]c2ccccc12)C(C)(C)C stay below 70 nM?
Result: f

Q: Does the reported Cmax of COC(=O)N[C@H](C(=O)N[C@@H](Cc1ccccc1)[C@H](CN(Cc1ccc(-c2ccccn2)cc1)NC(=O)[C@@H](NC(=O)OC)C(C)(C)C)OC(=O)[C@H](N)Cc1ccccc1)C(C)(C)C stay below 70 nM?
Result: t

Q: Does the reported Cmax of COC(=O)N[C@H](C(=O)N[C@@H](Cc1ccccc1)[C@H](CN(Cc1ccc(-c2ccccn2)cc1)NC(=O)[C@@H](NC(=O)OC)C(C)(C)C)OC(=O)CN)C(C)(C)C stay below 70 nM?
Result: f

====

Assay: Stability in pH 6.5 30%CH3CN/phosphate buffer assessed as parent compound remaining at 50 mM measured after 2 mins by RP-UPLC analysis
Type: physicochemical
Conditions: read-out: Stability
Assay endpoint: remaining at 2 min, 50000 µM (%)
Reply numerically in %, unit not repeated.

Q: Please look up its remaining at 2 min, 50000 µM: COC(=O)N[C@H](C(=O)N[C@@H](Cc1ccccc1)[C@H](CN(Cc1ccc(-c2ccccn2)cc1)NC(=O)[C@@H](NC(=O)OC)C(C)(C)C)OC(=O)CN(C)C(=O)[C@@H](N)Cc1ccccc1)C(C)(C)C.Cl.Cl
Result: 86.1

====

Settings: rat, in vivo, po, 3 mg/kg
Description: AUClast in cannulated Sprague-Dawley rat assessed as atazanavir level at 3 mg/kg equiv of atazanavir administered orally by UPLC/MS/MS analysis
Assay endpoint: AUClast (µM·h)
Reply numerically in µM·h, unit not repeated.

Q: Please look up its AUClast: COC(=O)N[C@H](C(=O)N[C@@H](Cc1ccccc1)[C@H](CN(Cc1ccc(-c2ccccn2)cc1)NC(=O)[C@@H](NC(=O)OC)C(C)(C)C)OC(=O)[C@@H](N)CCSC)C(C)(C)C
Result: 0.053

Q: Please look up its AUClast: COC(=O)N[C@H](C(=O)N[C@@H](Cc1ccccc1)[C@H](CN(Cc1ccc(-c2ccccn2)cc1)NC(=O)[C@@H](NC(=O)OC)C(C)(C)C)OC(=O)[C@@H](C)N)C(C)(C)C
Result: 0.008

Q: Please look up its AUClast: CN[C@@H](Cc1ccccc1)C(=O)N(C)CC(=O)O[C@@H](CN(Cc1ccc(-c2ccccn2)cc1)NC(=O)[C@@H](NC(=O)OC)C(C)(C)C)[C@H](Cc1ccccc1)NC(=O)[C@@H](NC(=O)OC)C(C)(C)C
Result: 0.092

Q: Please look up its AUClast: COC(=O)N[C@H](C(=O)N[C@@H](Cc1ccccc1)[C@H](CN(Cc1ccc(-c2ccccn2)cc1)NC(=O)[C@@H](NC(=O)OC)C(C)(C)C)OC(=O)[C@@H](N)Cc1c[nH]c2ccccc12)C(C)(C)C
Result: 0.19

Q: Please look up its AUClast: COC(=O)N[C@H](C(=O)N[C@@H](Cc1ccccc1)[C@H](CN(Cc1ccc(-c2ccccn2)cc1)NC(=O)[C@@H](NC(=O)OC)C(C)(C)C)OC(=O)[C@@H](NC(=O)[C@@H](N)C(C)C)C(C)C)C(C)(C)C
Result: 0.02
